Molecular target: HSP90α protein (N-terminal) (Homo sapiens, UniProt P07900)
Construct: purchased BPS Bioscience #50298
Experiment: HSP90α-binding fluorescent polarization (FP) assay, competition with BODIPY-labeled RNK04010
Conditions: probe RNK04010 (BODIPY-labeled) 5 nM, 25° C. 300 min
pIC50: −log10 of the molar value.
Attribute measured: pIC50

// solved cases for pIC50 follow
* Cc1sc2c(c1C)C(c1ccc(Cl)cc1)=N[C@@H](CC(=O)NCc1ccc(CN3CCC(Cc4ccc(-n5c(O)nnc5-c5cc(C(C)C)c(O)cc5O)cc4)CC3)cc1)c1nnc(C)n1-2 | > 7.00
* CCc1cc(-c2nnc(C(=O)NC3CC3)n2-c2ccc(CN3CCN(CC4CCN(C(=O)C[C@@H]5N=C(c6ccc(Cl)cc6)c6c(sc(C)c6C)-n6c(C)nnc65)CC4)CC3)cc2)c(O)cc1O | > 7.00
* Cc1sc2c(c1C)C(c1ccc(Cl)cc1)=N[C@@H](CC(=O)N1CCC(CCN3CCC(Cc4ccc(-n5c(O)nnc5-c5cc(C(C)C)c(O)cc5O)cc4)CC3)CC1)c1nnc(C)n1-2 | > 7.00
* Cc1sc2c(c1C)C(c1ccc(Cl)cc1)=N[C@@H](CC(=O)N(C)[C@@H](C)c1ccc(CN3CCC(Cc4ccc(-n5c(O)nnc5-c5cc(C(C)C)c(O)cc5O)cc4)CC3)cc1)c1nnc(C)n1-2 | 6.00 to 7.00

Next:
Dear colleague, I am looking for the recorded pIC50 of the following compound: CCOc1cc(N2CCC(C(=O)N3CCN(CCOc4ccc(Nc5cc(-n6nc(C(F)(F)F)c7c6CC(C)(C)CC7=O)ccc5C(N)=O)cc4)CC3)CC2)ccc1Nc1ncc2c(n1)N(C)c1ccccc1C(=O)N2C
6.00 to 7.00
